experiment: in vitro
Counter-ions that a name gives are not always drawn.
Record form. Attribute: cytotoxicity at 10 µM. Fill in for each entry.
One number for each entry, in %.

Input: Any idea what cytotoxicity at 10 µM was measured for CC(C)=CC1C(C(=O)O)C1(C)C (stereo not shown) ?
Output: -24.6

Input: Again, but for CN(C)[C@@H]1C(O)=C(C(N)=O)C(=O)[C@@]2(O)C(O)=C3C(=O)c4c(O)ccc(Cl)c4[C@@](C)(O)[C@H]3C[C@@H]12 [CHLORTETRACYCLINE HYDROCHLORIDE]
Output: -2

Input: Again, but for CC[C@@]1(O)C[C@H](O[C@H]2C[C@H](N(C)C)[C@H](O)[C@H](C)O2)c2c(cc3c(c2O)C(=O)c2c(O)ccc(O)c2C3=O)[C@H]1C(=O)OC
Output: 21.5

Further cases:
Input: Any idea what cytotoxicity at 10 µM was measured for CN1[C@@H]2C[C@@H](OC(=O)[C@H](CO)c3ccccc3)C[C@H]1[C@@H]1O[C@@H]12 [SCOPOLAMINE HYDROBROMIDE] ?
Output: -29.6

* * *

Record form. Attribute: cytotoxicity at 41 h, 10 µM. Fill in for each entry.
test: in vitro; details: human
Answers are plain numbers, in %.

Reference set (7 entries):
Input: Any idea what cytotoxicity at 41 h, 10 µM was measured for N[C@@H](Cc1ccc(O)c(O)c1)C(=O)O ?
Output: -15.4

Input: Again, but for COc1c2ccoc2nc2c(OC)c(OCC(O)C(C)(C)O)ccc12 (centres unmarked)
Output: 7

Input: Again, but for CC1=CC(=O)C(C(C)C)=CC1=O
Output: -5.8

Input: Again, but for COc1cc([C@@H]2c3cc4c(cc3[C@@H](O[C@@H]3O[C@@H]5CO[C@@H](C)O[C@H]5[C@H](O)[C@H]3O)[C@H]3COC(=O)[C@H]23)OCO4)cc(OC)c1O [ETOPOSIDE]
Output: 24.1

Input: Again, but for COc1c(C)c2c(c(O)c1C/C=C(\C)CCC(=O)O)C(=O)OC2
Output: 51.1

Input: Again, but for CC(=O)O[C@H]1CC[C@@]2(C)C(=CC(=O)[C@H]3[C@@H]4CC[C@H]([C@H](C)CCCC(C)C)[C@@]4(C)CC[C@@H]32)C1 [7-OXOCHOLESTERYL ACETATE]
Output: -15.2

Input: Again, but for O=c1c(-c2cc(O)c(O)c(O)c2)coc2cc(O)c(O)c(O)c12
Output: 0.7

Now let's try a different one.
Input: Any idea what cytotoxicity at 41 h, 10 µM was measured for COc1cccc(O)c1O ?
Output: 3.2

* * *

Record form. Attribute: Cytotoxicity (%). Fill in for each entry.
system: HCT-8 host cells (Hs18S); details: primary screening at 10 uM, from Hs18S ΔCT
Answers are plain numbers, in %.

Input: Any idea what Cytotoxicity (%) was measured for COc1cc2c(cc1O)CCNC2C (stereo not shown) ?
Output: -0.9

Input: Again, but for CC1(C)C2CC(=O)[C@]3(C)C(CC[C@@]4(C)[C@H](c5ccoc5)OC(=O)C5OC543)[C@@]2(C)[C@@H](O)C[C@H]1O (stereo partly shown)
Output: 4.7

Input: Again, but for CC(=O)c1c(O)cc(O)cc1O
Output: 26.5

Input: Again, but for CC(=O)O[C@H]1C[C@@H](OC(C)=O)C(C)(C)[C@@H]2C[C@@H](OC(C)=O)[C@@]3(C)C4=CC(=O)O[C@@H](c5ccoc5)[C@]4(C)CC[C@@H]3[C@@]12C
Output: 7.7

Input: Again, but for CN[C@@H]1[C@H](O)[C@H](NC)[C@H]2O[C@@]3(O)C(=O)C[C@@H](C)O[C@H]3O[C@@H]2[C@H]1O.Cl [SPECTINOMYCIN HYDROCHLORIDE]
Output: -42.8

For every item below, please supply its Cytotoxicity (%).
1. C[C@@H]1C[C@H](O)[C@@]2(O)[C@]13CC(=O)OC[C@@]2(C)[C@@](C)(O)C(=O)C3
2. CC(=O)O[C@H]1CC[C@@]2(C)C(=CC=C3[C@@H]4CC[C@H]([C@H](C)/C=C/[C@H](C)C(C)C)[C@@]4(C)CC[C@@H]32)C1 [ERGOSTEROL ACETATE]

Output:
9.2
3.7

* * *

Record form. Attribute: cytotoxicity at 41 h, 10 µM. Fill in for each entry.
assay: in vitro; settings: human
Quote the value and follow it with the unit of measurement.

Reference set (3 entries):
Input: Any idea what cytotoxicity at 41 h, 10 µM was measured for COc1cc(C/C=C/c2ccccc2)c(OC)cc1O [VIOLASTYRENE] ?
Output: -23.3%

Input: Again, but for O=c1cc(-c2ccccc2)oc2cc(O)cc(O)c12 [CHRYSIN]
Output: 9.3%

Input: Again, but for COC1=C(O)C(=O)c2c(cc3oc(C(C)=O)c(O)c3c2O)C1=O [RHODOCLADONIC ACID]
Output: -2.1%

For every item below, please supply its cytotoxicity at 41 h, 10 µM.
1. OC[C@H]1O[C@@](CO)(O[C@H]2O[C@H](CO)[C@@H](O)[C@H](O)[C@H]2O)[C@@H](O[C@H]2O[C@H](CO)[C@@H](O)[C@H](O)[C@H]2O)[C@@H]1O [MELEZITOSE]
2. COc1cccc(-c2cc(=O)c3cc(OC)ccc3o2)c1 [6,3'-DIMETHOXYFLAVONE]
3. C[C@]12CC[C@@H]3c4ccc(O)cc4CC[C@H]3[C@@H]1CCC2=O [ESTRONE]
4. COC(=O)c1c(OC)cc2c(c1C)Oc1c(Cl)c(O)c(Cl)c(C)c1C(=O)O2 [GANGALEOIDIN]

Output:
["-13%", "-5.6%", "-18.4%", "-3.3%"]

For every item below, please supply its cytotoxicity at 41 h, 10 µM.
1. COc1ccc(-c2coc3cc(O)ccc3c2=O)cc1 [FORMONONETIN]
2. CCOC(=O)CCCCCCCCCCCCC1C=CCC1 (stereo not drawn) [CHAULMOOGRIC ACID, ETHYL ESTER]
3. COc1ccc2c(c1OC)OC[C@@H](c1ccc(OC)c(OC)c1OC)C2 [DUARTIN, DIMETHYL ETHER]
4. C=C[C@](C)(O)CC[C@@H]1[C@@]2(C)CCCC(C)(C)[C@@H]2CC[C@@]1(C)O [SCLAREOL]
5. O=C(/C=C/c1ccccc1)c1ccc(O)cc1O [2',4'-DIHYDROXYCHALCONE]
6. O=C1c2cccc(O)c2C(=O)c2c(O)cccc21 [DANTHRON]

Output:
1. -53.6%
2. -10.8%
3. -16.4%
4. -10.7%
5. 6.1%
6. -8.6%

* * *

system: HCT-8 host cells (Hs18S); details: primary screening at 10 uM, from Hs18S ΔCT
Record form. Attribute: Cytotoxicity (%). Fill in for each entry.
Numbers only, in %.

Reference set (2 entries):
Input: Any idea what Cytotoxicity (%) was measured for COC(=O)[C@H]1[C@H]2C[C@H]3c4[nH]c5ccccc5c4CCN3C[C@@H]2CC[C@@H]1O [CORYNANTHINE] ?
Output: -53.1

Input: Again, but for CC(=O)O[C@H]1CC[C@]2(C)C3=C(CC[C@H]2C1(C)C)[C@]1(C)CC[C@H]([C@H](C)CCC=C(C)C)[C@@]1(C)CC3 [LANOSTEROL ACETATE]
Output: -2.8

Further cases:
Input: Any idea what Cytotoxicity (%) was measured for NC[C@H]1O[C@H](O[C@H]2[C@H](O[C@@H]3O[C@H](CO)[C@@H](O)[C@H]3O)[C@@H](O)[C@H](N)C[C@@H]2N)[C@H](N)[C@@H](O)[C@@H]1O.O=S(=O)(O)O [RIBOSTAMYCIN SULFATE] ?
Output: -2.0

* * *

assay: in vitro
assay_metric: cytotoxicity at 10 µM (%)
Numbers only, in %.

Reference set (4 entries):
Input: Any idea what cytotoxicity at 10 µM was measured for CC(C)(O)[C@@H]1[C@H]2OC(=O)[C@@H]1[C@]1(O)C[C@H]3O[C@]34C(=O)O[C@H]2[C@]14C [PICROTIN] ?
Output: -14.8

Input: Again, but for O=c1c(O)c(-c2ccccc2)oc2cc(O)cc(O)c12 [GALANGIN]
Output: 23.6

Input: Again, but for C=C(C)[C@@H]1CC=C(C(=O)O)CC1 [PERILLIC ACID (-)]
Output: 8.9

Input: Again, but for CC[C@@]1(O)C[C@H](O)c2c(cc3c(c2O)C(=O)c2c(O)ccc(O)c2C3=O)[C@H]1C(=O)OC [RUTILANTINONE]
Output: -45.2

For every item below, please supply its cytotoxicity at 10 µM.
1. COc1cc(O)c2c(=O)cc(-c3ccc(O)cc3)oc2c1 [GENKWANIN]
2. O=C1C=C2C(=CCOC2O)O1 (centres unmarked) [PATULIN]
3. CC(C)=CCCC1(C)C=Cc2c(O)c3c(c(CC=C(C)C)c2O1)OC12C(=CC4CC1C(C)(C)OC2(C/C=C(/C)C(=O)O)C4O)C3=O (centres unmarked) [Dihydrogambogic acid]
4. COc1ccc(/C=C/c2cc(O)cc(O)c2)cc1 [RESVERATROL 4'-METHYL ETHER]
5. CC(C)C1=CC2=CC[C@@H]3[C@](C)(CCC[C@@]3(C)C(=O)O)[C@H]2CC1 [ABIETIC ACID]
6. CO[C@@]12[C@H](COC(N)=O)C3=C(C(=O)C(C)=C(N)C3=O)N1C[C@@H]1N[C@@H]12 [Mitomycin, reference compound]
7. O=C(O)/C=C/c1ccccc1 [CINNAMIC ACID]
8. CC[C@H](CC[C@@H](C)[C@H]1CC[C@H]2[C@@H]3CC=C4C[C@@H](O)CC[C@]4(C)[C@H]3CC[C@]12C)C(C)C [beta-SITOSTEROL]

Output:
-77.7
43
-52
-29
-30.7
60.5
-31
25.8
